Source of measurements: patent US11873287B2

As shown below, each of these compounds has a reported Length (cm, Mean ± SD) of colon value.
Tested on: DSS-Induced inflammatory Bowel Disease Models in Mice
Assay: DSS-induced inflammatory bowel disease model in mice (Biological Example 5, 1.3% DSS)
Format: in vivo, C57BL/6 mice
Conditions: 30 mg/Kg i.g. Q.D; 1.3% DSS days 0-5
Entry rule: numbers only, all in cm.

COCCN1C(=O)CCC(N2C(=O)c3cccc(N)c3C2=O)C1=O (centres unmarked)
6.7
C[S+]([O-])CCN1C(=O)CCC(N2C(=O)c3cccc(N)c3C2=O)C1=O (centres unmarked)
7.0

# input Please respond with reported Length (cm, Mean ± SD) of colon (system DSS-Induced inflammatory Bowel Disease Models in Mice) for COCCN1C(=O)CCC(N2C(=O)c3cccc(O)c3C2=O)C1=O (centres unmarked) .
# output 6.9

# input Please respond with reported Length (cm, Mean ± SD) of colon (system DSS-Induced inflammatory Bowel Disease Models in Mice) for COCCN1C(=O)CCC(N2C(=O)c3cccc(C)c3C2=O)C1=O (centres unmarked) .
# output 6.7

# input Please respond with reported Length (cm, Mean ± SD) of colon (system DSS-Induced inflammatory Bowel Disease Models in Mice) for COCCN1C(=O)CCC(C)(N2C(=O)c3cccc(N)c3C2=O)C1=O (centres unmarked) .
# output 6.6

# input Please respond with reported Length (cm, Mean ± SD) of colon (system DSS-Induced inflammatory Bowel Disease Models in Mice) for CS(=O)(=O)CCN1C(=O)CCC(N2C(=O)c3cccc(N)c3C2=O)C1=O (centres unmarked) .
# output 6.9

# input Please respond with reported Length (cm, Mean ± SD) of colon (system DSS-Induced inflammatory Bowel Disease Models in Mice) for COCCCCN1C(=O)CCC(N2C(=O)c3cccc(N)c3C2=O)C1=O (centres unmarked) .
# output 6.9

# input Please respond with reported Length (cm, Mean ± SD) of colon (system DSS-Induced inflammatory Bowel Disease Models in Mice) for COCCN1C(=O)CCC(N2C(=O)c3ccc(F)cc3C2=O)C1=O (centres unmarked) .
# output 6.9

====

As shown below, each of these molecules has a reported Daily Body Weight of Tested Male Mice (Mean ± SD) value.
System: ICR mice
Assay: Acute toxicity experiment of single oral administration in mice
Type: in vivo
Details: Day 2; male; 1000 mg/Kg single oral dose
Entry rule: numbers only, all in g.

Use the examples below as a reference point.
C[S+]([O-])CCN1C(=O)CCC(N2C(=O)c3cccc(N)c3C2=O)C1=O (stereo not shown)
24.3
COCCN1C(=O)CCC(N2C(=O)c3cccc(C)c3C2=O)C1=O (stereo not shown)
22.3
COCCN1C(=O)CCC(N2C(=O)c3cccc(F)c3C2=O)C1=O (stereo not shown)
22.2

# input Give recorded Daily Body Weight of Tested Male Mice (Mean ± SD). CCOCCN1C(=O)CCC(N2C(=O)c3cccc(N)c3C2=O)C1=O (stereo not shown)
# output 20.7

# input Give recorded Daily Body Weight of Tested Male Mice (Mean ± SD). Nc1cccc2c1C(=O)N(C1CCC(=O)N(CCO)C1=O)C2=O (stereo not shown)
# output 21.5

# input Give recorded Daily Body Weight of Tested Male Mice (Mean ± SD). CS(=O)(=O)CCN1C(=O)CCC(N2C(=O)c3cccc(N)c3C2=O)C1=O (stereo not shown)
# output 23.1

# input Give recorded Daily Body Weight of Tested Male Mice (Mean ± SD). CNc1cccc2c1C(=O)N(C1CCC(=O)N(CCOC)C1=O)C2=O (stereo not shown)
# output 24.1
